Would you kindly list EC50 for each of these molecules?
Tested Target: human mGluR2 receptor (Homo sapiens)
Construct: expressed in transfected cells; host or cells: CHO cells (membrane preparation)
Sequence (Q14416 19-872): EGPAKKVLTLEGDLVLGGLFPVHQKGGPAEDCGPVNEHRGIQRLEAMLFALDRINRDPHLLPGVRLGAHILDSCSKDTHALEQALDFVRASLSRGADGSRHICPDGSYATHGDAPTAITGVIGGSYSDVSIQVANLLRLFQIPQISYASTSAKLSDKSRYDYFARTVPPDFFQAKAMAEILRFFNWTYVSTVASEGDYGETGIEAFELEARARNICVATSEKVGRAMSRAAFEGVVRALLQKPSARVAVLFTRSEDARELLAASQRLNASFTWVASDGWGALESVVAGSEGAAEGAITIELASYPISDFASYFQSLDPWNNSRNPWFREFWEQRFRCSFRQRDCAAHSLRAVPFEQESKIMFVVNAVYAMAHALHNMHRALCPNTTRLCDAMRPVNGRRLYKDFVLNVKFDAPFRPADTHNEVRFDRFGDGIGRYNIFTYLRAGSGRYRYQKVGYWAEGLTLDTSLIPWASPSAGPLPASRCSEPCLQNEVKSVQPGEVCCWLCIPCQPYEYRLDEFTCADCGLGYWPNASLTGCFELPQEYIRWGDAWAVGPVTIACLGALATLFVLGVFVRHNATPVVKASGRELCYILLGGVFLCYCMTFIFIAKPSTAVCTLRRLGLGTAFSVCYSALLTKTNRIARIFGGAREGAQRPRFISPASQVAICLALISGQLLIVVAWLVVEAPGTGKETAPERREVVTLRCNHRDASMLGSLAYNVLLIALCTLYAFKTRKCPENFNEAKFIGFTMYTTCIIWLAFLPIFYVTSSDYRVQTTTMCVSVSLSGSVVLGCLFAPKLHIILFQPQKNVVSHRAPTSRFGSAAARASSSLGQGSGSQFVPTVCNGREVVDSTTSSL
Test Summary: [35S]GTPγS binding assay (GTPγS-PAM): positive allosteric modulation in presence of glutamate at EC25, membranes from transfected CHO cells
Assay type: biochemical
Condition Description: in presence of mGluR2 agonist glutamate at predetermined EC25 concentration, averages of duplicate values of 11-concentration response curves, read-out: GTPgS - hR2 PAM pEC50 (converted)
Remember to put the unit after the number in your answer.

The reported value for `CCCCn1ccc(-c2ccc(N3CCCCC3)cc2)c(C#N)c1=O` in terms of EC50 is 316 nM

The reported value for `CC(C)Oc1ccc(-c2ccn(CCOc3ccccc3)c(=O)c2C#N)cc1Cl` in terms of EC50 is 126 nM

The reported value for `N#Cc1c(-c2ccc(N3CCOCC3)cc2)ccn(Cc2ccc(OC(F)(F)F)cc2)c1=O` in terms of EC50 is 794 nM

The reported value for `CC(C)CCn1ccc(-c2ccc(Nc3ccccc3)cc2)c(C#N)c1=O` in terms of EC50 is 5010 nM

The reported value for `CCCCn1ccc(N2CCC(Oc3ccc(C#N)cc3)CC2)c(C#N)c1=O` in terms of EC50 is 501 nM

* * *

Tested Target: human mGluR2 receptor (Homo sapiens)
Construct: expressed in transfected cells; host or cells: CHO cells (membrane preparation)
Test Summary: [35S]GTPγS binding assay (GTPγS-PAM): positive allosteric modulation in presence of glutamate at EC25, membranes from transfected CHO cells
Format: biochemical
Condition Description: in presence of mGluR2 agonist glutamate at predetermined EC25 concentration, averages of duplicate values of 11-concentration response curves, read-out: GTPgS - hR2 PAM pEC50 (converted)
Quantity Kind: EC50 (µM)
Answer in µM, number only, no unit symbol.

The reported value for `CCCCn1ccc(N2CCC(c3ccnc(C)c3)CC2)c(C#N)c1=O` in terms of EC50 is 3.98

The reported value for `N#Cc1c(N2CCC(c3ccccc3)CC2)ccn(Cc2ccc(OC(F)(F)F)cc2)c1=O` in terms of EC50 is 0.0398

The reported value for `CC(C)CCn1ccc(N2CCC(CN(C)Cc3ccc(F)cc3)CC2)c(C#N)c1=O` in terms of EC50 is 1.26

The reported value for `Cc1ccccc1Cn1ccc(-c2cccs2)c(C#N)c1=O` in terms of EC50 is 3.98

The reported value for `COc1ccc(-c2ccn(Cc3cccc(C)c3)c(=O)c2C#N)cc1` in terms of EC50 is 1

The reported value for `CC(C)CCn1ccc(Nc2ccc(Oc3ccncc3)cc2)c(C#N)c1=O` in terms of EC50 is 1.26

The reported value for `CC(C)CCn1ccc(N2CCC(C(=O)c3ccccc3)CC2)c(C#N)c1=O` in terms of EC50 is 0.398

The reported value for `CC(C)CCn1ccc(OCc2ccc(C#N)cc2)c(C#N)c1=O` in terms of EC50 is 3.98

The reported value for `CC(C)CCn1ccc(N2CCC(N(C)Cc3cccc(C(F)(F)F)c3)CC2)c(C#N)c1=O` in terms of EC50 is 0.1

The reported value for `COc1cc(-c2ccn(CCC(C)C)c(=O)c2C#N)ccc1OCc1cccnc1` in terms of EC50 is 1.58

The reported value for `CC(C)CCn1ccc(N(C)Cc2ccccc2)c(C#N)c1=O` in terms of EC50 is 3.16

The reported value for `CCCCn1ccc(-c2ccc(OCc3cccc(C)n3)cc2)c(C#N)c1=O` in terms of EC50 is 1

The reported value for `CC(C)CCn1ccc(N2CCC(Oc3ccc(F)cc3)CC2)c(C#N)c1=O` in terms of EC50 is 0.501

The reported value for `CC(C)CCn1ccc(-c2ccc(OCCN3CCOCC3)cc2)c(C#N)c1=O` in terms of EC50 is 3.98

The reported value for `N#Cc1c(-c2cccs2)ccn(CC2CCCCC2)c1=O` in terms of EC50 is 0.251

The reported value for `CCCCn1ccc(N2CCN(c3ncc(C4CC4)cn3)CC2)c(C#N)c1=O` in terms of EC50 is 0.158

The reported value for `N#Cc1c(OC2CCN(Cc3cccc(C(F)(F)F)c3)CC2)ccn(CC2CC2)c1=O` in terms of EC50 is 1.26

The reported value for `CC(C)CCn1ccc(-c2ccc(OCc3ccccc3)c(F)c2)c(C#N)c1=O` in terms of EC50 is 0.0501

The reported value for `C[C@@H]1COC[C@H](C)N1Cc1ccc(-c2ccn(Cc3ccc(OC(F)(F)F)cc3)c(=O)c2C#N)cc1` in terms of EC50 is 1.26

The reported value for `CC(C)CCn1ccc(-c2ccc(OCc3cccc(Cl)c3)cc2)c(C#N)c1=O` in terms of EC50 is 0.0501

The reported value for `CC(C)CCn1ccc(-c2ccc(NCc3cccc(F)c3)cc2)c(C#N)c1=O` in terms of EC50 is 0.0631

The reported value for `Cc1ccc(Cn2ccc(-c3ccco3)c(C#N)c2=O)cc1` in terms of EC50 is 2.51

The reported value for `N#Cc1c(N2CCN(Cc3ccc(F)c(F)c3)CC2)ccn(Cc2ccc(F)cc2)c1=O` in terms of EC50 is 3.16

The reported value for `Cc1ccc(-c2ccn(CCC(C)C)c(=O)c2C#N)cc1[N+](=O)[O-]` in terms of EC50 is 0.794

The reported value for `CC(C)CCn1ccc(-c2ccc(C3(C(N)=O)CC3)cc2)c(C#N)c1=O` in terms of EC50 is 3.98

The reported value for CC(C)CCn1ccc(N2CCC3Oc4ccccc4OC3C2)c(C#N)c1=O (centres unmarked) in terms of EC50 is 0.398

The reported value for `CC(C)Oc1ccc(-c2ccn(Cc3ccc(F)cc3)c(=O)c2C#N)cc1Cl` in terms of EC50 is 0.1

The reported value for `CC(C)CCn1ccc(-c2ccc(OCC(F)F)c(Cl)c2)c(C#N)c1=O` in terms of EC50 is 1

The reported value for `N#Cc1c(N2CCN(Cc3ccccc3)CC2)ccn(CCOCc2ccccc2)c1=O` in terms of EC50 is 5.01

The reported value for `CC(C)CCn1ccc(-c2ccc(C(=O)N(C)Cc3ccccc3)cc2)c(C#N)c1=O` in terms of EC50 is 0.794

The reported value for `N#Cc1c(N2CCN(CC(=O)c3ccccc3)CC2)ccn(Cc2ccc(OC(F)(F)F)cc2)c1=O` in terms of EC50 is 3.16

The reported value for `CC(C)CCn1ccc(CCc2ccc(N(C)C)cc2)c(C#N)c1=O` in terms of EC50 is 1

The reported value for `CC(C)CCn1ccc(-c2ccc(NCc3cccc(Cl)c3)cc2)c(C#N)c1=O` in terms of EC50 is 0.0316

The reported value for `Cc1ccc(Cn2ccc(-c3cccs3)c(C#N)c2=O)cc1` in terms of EC50 is 0.794

The reported value for `CC(C)CCn1ccc(OCCN(C)Cc2cccc(F)c2)c(C#N)c1=O` in terms of EC50 is 2.51

The reported value for `CC(C)CCn1ccc(N2CCC(N(C)c3cccc(C(F)(F)F)c3)CC2)c(C#N)c1=O` in terms of EC50 is 0.0631

The reported value for `CC(C)CCn1ccc(N2CCC(N(C)Cc3ccc(F)cc3)CC2)c(C#N)c1=O` in terms of EC50 is 1.26

The reported value for `CC(C)CCn1ccc(N2CCC(N(C)Cc3ccc(C(F)(F)F)cc3)CC2)c(C#N)c1=O` in terms of EC50 is 0.126
